Entries annotated with measured AUC %
Target: T1, human TNFR2 on the cell surface (CHO-TNFR2 cells; human Treg cells) (human, UniProt P20333 23-461)
T1 construct: whole, on cells; The assay field of each row says which cells; also called TNFR2-CHO cell; TNFR2 on Treg cells
T1 sequence (looked up): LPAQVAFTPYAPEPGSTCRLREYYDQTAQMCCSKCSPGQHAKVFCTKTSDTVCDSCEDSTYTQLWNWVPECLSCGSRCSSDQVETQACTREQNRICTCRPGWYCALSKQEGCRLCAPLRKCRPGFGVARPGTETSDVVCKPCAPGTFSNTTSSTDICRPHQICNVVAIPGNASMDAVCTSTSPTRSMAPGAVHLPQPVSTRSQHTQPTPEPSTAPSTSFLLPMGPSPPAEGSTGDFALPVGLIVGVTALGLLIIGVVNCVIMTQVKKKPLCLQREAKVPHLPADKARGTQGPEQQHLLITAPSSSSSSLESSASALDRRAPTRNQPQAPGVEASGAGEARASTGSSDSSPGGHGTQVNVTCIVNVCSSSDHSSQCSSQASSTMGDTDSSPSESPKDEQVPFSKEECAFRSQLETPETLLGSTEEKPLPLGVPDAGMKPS
Assay: flow cytometry, blocking of TNFα-biotin on CHO-TNFR2 cells; AUC for 002# / AUC for antibody x 100
Write the answer as a number in %, unit excluded.

// below: answered binders
# Binder, AUC % (%)
rows = [
    ("TNFR2 antibody #125 (antibody, V domains shown) VH: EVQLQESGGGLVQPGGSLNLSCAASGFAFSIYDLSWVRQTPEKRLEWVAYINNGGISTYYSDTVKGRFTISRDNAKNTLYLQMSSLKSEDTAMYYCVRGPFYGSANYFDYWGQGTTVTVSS VL: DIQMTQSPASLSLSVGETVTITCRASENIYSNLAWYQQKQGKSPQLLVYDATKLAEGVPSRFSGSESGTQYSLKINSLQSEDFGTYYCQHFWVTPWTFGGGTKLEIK", 121),
    ("TNFR2 antibody #088 (antibody, V domains shown) VH: EVQLQESGGGLVQPGGSLNLSCAASGFAFSTYDLSWVRQTPGKRLEWVAYINNGGISTYYSDTVKGRFTITRDNAKNTLYLQMSSLKSEDTAMYYCVRGPFYGSANYFDYWGQGTTVTVSS VL: DILMTQSPASLSLFVGETVTITCRASENIYSNLAWYQQKQGKSPQLLVYDATKLAEGVPSRFSGSESGTQYSLKINSLQSEDFGTYYCQHFWVTPWTFGGGTKLEIK", 75.4),
    ("TNFR2 antibody #224 (antibody, V domains shown) VH: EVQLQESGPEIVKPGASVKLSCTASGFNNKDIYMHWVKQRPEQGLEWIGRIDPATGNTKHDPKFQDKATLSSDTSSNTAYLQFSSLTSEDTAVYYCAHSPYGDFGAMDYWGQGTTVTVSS VL: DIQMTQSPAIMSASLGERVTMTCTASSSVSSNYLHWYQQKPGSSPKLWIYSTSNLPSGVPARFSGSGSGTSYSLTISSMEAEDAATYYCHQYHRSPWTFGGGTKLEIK", 100),
    ("TNFR2 antibody #352 (antibody, V domains shown) VH: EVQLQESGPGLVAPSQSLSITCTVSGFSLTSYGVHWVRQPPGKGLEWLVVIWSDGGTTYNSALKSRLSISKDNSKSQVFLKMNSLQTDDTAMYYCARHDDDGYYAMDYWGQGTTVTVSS VL: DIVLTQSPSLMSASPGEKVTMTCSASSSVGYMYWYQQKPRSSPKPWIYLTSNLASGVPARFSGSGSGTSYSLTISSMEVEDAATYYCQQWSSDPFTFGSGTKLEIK", 116),
]

Sample TNFR2 antibody #133 (antibody, V domains shown) VH: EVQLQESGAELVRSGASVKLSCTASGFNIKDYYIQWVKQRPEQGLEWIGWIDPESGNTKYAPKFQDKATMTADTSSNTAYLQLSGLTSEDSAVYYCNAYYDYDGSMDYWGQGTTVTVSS VL: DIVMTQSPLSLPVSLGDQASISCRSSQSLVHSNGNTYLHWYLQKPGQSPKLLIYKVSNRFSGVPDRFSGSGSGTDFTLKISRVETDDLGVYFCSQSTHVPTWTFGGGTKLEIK — what was its AUC %?
99.9
